Sourced from the RNAGym collection of RNA variant scans (doi:10.7554/elife.80360)

B1: HDV Ribozyme (parent)
chain: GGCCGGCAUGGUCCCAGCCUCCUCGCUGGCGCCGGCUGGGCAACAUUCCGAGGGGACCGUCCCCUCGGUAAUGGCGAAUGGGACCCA

# Variants of: B1
# run_description: self-cleavage, relative activity (ratio to wild type); higher = more cleavage; co-transcriptional
self-cleavage overview
I only need the number, thanks.

[
  {
    "polymer_sequence": "GGCCGGCAUGGUCCCAGCCUCCUCGCUGGCGCCGGAUGGGCAACAUACCGAGGGGACCGUCCCCUCGGUAAUGGCGAAUGGGACCCA",
    "self-cleavage": 0.196
  },
  {
    "polymer_sequence": "GGCCGGCAUGGUCCCAGCCUCCUCGCGGGCGCCAGCUGGGCAACAUUCCGAGGGGACCGUCCCCUCGGUAAUGGCGAAUGGGACCCA",
    "self-cleavage": 0.415
  },
  {
    "polymer_sequence": "GGCCGGCAUGGUCCCAGCCUCCUCGCUGGCGCCGGCUGGGCAACAUUCCGAGCGGACCAUCCCCUCGGUAAUGGCGAAUGGGACCCA",
    "self-cleavage": 0.95
  },
  {
    "polymer_sequence": "GGCCGGCAUGGUCCCAGCCUCCUCUCUGGCGCCGGCUGGGCAACAUUCCGAGGCGACCGUCCCCUCGGUAAUGGCGAAUGGGACCCA",
    "self-cleavage": 0.122
  },
  {
    "polymer_sequence": "GGCCGGCAUGGUCCCAGCCUCCUCGCUGGCGCCGGCUGGGCAACAUUCCGAGGGGACCUUCCCCUCGGUAAUGGCGAAUGGGACCUA",
    "self-cleavage": 0.852
  }
]

Please report self-cleavage for the following variant: GGCCGGCAUGGUCCCAGCCUCCUCGCUGGCGCCGGCUGGGCAACAUACCGAGGGGACCGUCCCCUCGGGAAUGGCGAAUGGGACCCA
1.13

Please report self-cleavage for the following variant: GGCCGGCAUGGUCCCAGCCUCCUCGCUGGCGCCGGGUGGGCAACAUUCCGAGGGGACCGUCCCCUCGCUAAUGGCGAAUGGGACCCA
0.17

Please report self-cleavage for the following variant: GGCCGGCAUGGUCCCAGCCUCCUCGAUGGCGCCGGCUGGGCAACAUUCCGAGGGGACCGUCCCCUUGGUAAUGGCGAAUGGGACCCA
0.857

Please report self-cleavage for the following variant: GGCCGGCAUGGUCCCAGCCUCCUCGCUGGCGCCGGCUGGGUAACAUUCGGAGGGGACCGUCCCCUCGGUAAUGGCGAAUGGGACCCA
0.317

Please report self-cleavage for the following variant: GGCCGGCAUGAUCCCAGCCUCCUCGCUGGCGCCGGCUGGGCAACGUUCCGAGGGGACCGUCCCCUCGGUAAUGGCGAAUGGGACCCA
0.403
